The origin of these recorded values is ChEMBL document CHEMBL3044850.

Here, each record is paired with measured inhibition of growth at 50 µg/mL data.
Test system: Alternaria solani
experimentSummary: Fungicidal activity against Alternaria solani assessed as growth inhibition at 50 ug/ml at 23 degC after 3 days
Assay type: functional
testSettings: 72 h, read-out: GI
Field format: number, assumed %, no unit text.

Below are worked cases with known answers.
>>> df
                                   compound  uom  result
0  Cc1nn(C)c(Oc2ccccc2)c1/C=N/OCc1ccc(C(=O)OC(C)(C)C)cc1 [FENPYROXYMATE]    %     8.3
1  Cn1nc(C(F)(F)F)c(/C=N/OCc2cnc(Cl)s2)c1Oc1ccc(Cl)cc1Cl    %    29.2
2  Cc1ccc(Oc2c(/C=N/OCc3cnc(Cl)s3)c(C(F)(F)F)nn2C)cc1    %    34.6
3  Cn1nc(C(F)(F)F)c(/C=N/OCc2cnc(Cl)s2)c1Oc1cccc(Cl)c1    %    22.9
4  Cn1nc(C(F)(F)F)c(/C=N/OCc2cnc(Cl)s2)c1Oc1ccc(C(C)(C)C)cc1    %    24.8

API: the following record is the query input.
Ask: Recorded inhibition of growth at 50 µg/mL for `Cc1ccc(Cl)c(Oc2c(/C=N/OCc3cnc(Cl)s3)c(C(F)(F)F)nn2C)c1` , please?
Result: 32.3
